Potency (IU/ml) values, listed per item
Molecular target: T1, glycoprotein of rabies virus strain CVS-11 (rabies virus strain CVS-11, UniProt O92284 20-524)
T1 sequence: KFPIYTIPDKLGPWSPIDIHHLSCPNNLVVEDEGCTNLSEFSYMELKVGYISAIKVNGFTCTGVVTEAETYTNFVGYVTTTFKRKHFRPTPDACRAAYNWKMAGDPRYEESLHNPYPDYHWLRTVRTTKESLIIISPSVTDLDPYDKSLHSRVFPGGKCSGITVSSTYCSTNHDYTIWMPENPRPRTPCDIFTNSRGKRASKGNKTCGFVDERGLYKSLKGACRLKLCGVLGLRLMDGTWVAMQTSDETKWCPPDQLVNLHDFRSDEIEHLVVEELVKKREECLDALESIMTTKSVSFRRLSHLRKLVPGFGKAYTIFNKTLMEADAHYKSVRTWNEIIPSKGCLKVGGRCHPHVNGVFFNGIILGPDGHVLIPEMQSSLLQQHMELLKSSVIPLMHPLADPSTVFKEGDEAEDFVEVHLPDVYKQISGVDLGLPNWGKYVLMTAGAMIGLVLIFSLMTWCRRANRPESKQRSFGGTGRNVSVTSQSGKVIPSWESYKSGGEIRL
Assay: cell-based or functional assay

Binder	Potency (IU/ml)
SC04-120 (scFv) scFv: AMAEVQLVQSGGGLVQPGRSLRLSCAASGFTFSTYGMHWVRQAPGKGLEWVATISYDGSIKDYADSEKGRFTISRDNSKNTLYLQMNSLRAEDTAVYYCAKGGKTGEFDYWGQGTLVTVSSGTGGSGGTGSGTGGSTDIQLTQSPSTLSASVGDRVTITCRASQGINSYLAWYQQEPGKAPKLLIYAASTLQSGVPSRFSGSGSGTEFTLTISSLQPEDFATYYCQQLNSYPFTFGPGTKVDIKRAAA	6 IU/ml

Shifting focus to the binder that follows.
Potency (IU/ml) reading for SC04-140 (scFv) scFv: AMAQMQLVQSGGGVVQPGRSLRLSCAASGFTFSSYGMHWVRQAPGKGLEWVAVILYDGSNKYYADSVKGRFTISRDNSKNALYLQMNSLRAEDTAVYYCAKVTNPGDAFDIWGQGTMVTVSSGTGGSGGTGSGTGGSTDIQMTQSPSSLSASVGDRVTITCRASQGISSALAWYQQKPGKAPKLLIYDASSLESGVPSRFSGSGSGTDFTLTISSLQPEDFATYYCQQFNSYPLTFGGGTKVEIKRAAA : 1 IU/ml
